Items are presented alongside their recorded CC50 (HepG2)/IC50 (Mino).
Test system: HepG2 cells (hepatocellular carcinoma)
Method summary: General cytotoxicity on HepG2 cells (CC50; therapeutic index CC50 HepG2/IC50 Mino)
Assay type: cell-based
Condition label: Table 10; therapeutic index
Assay metric: CC50 (HepG2)/IC50 (Mino)

- Entry smiles: "C=CC(=O)N1CCC[C@@H](n2nc(-c3ccc(Oc4ccncc4C(N)=O)cc3)c3cncc(F)c32)C1"
  Operator symbol: ">"
  Measured result: 3.09
- Entry smiles: "C=CC(=O)N1CCC[C@@H](n2nc(-c3ccc(C(=O)Nc4cc(C(F)(F)F)ccn4)cc3)c3cncc(C#N)c32)C1"
  Operator symbol: "="
  Measured result: 0.51
- Entry smiles: "C=CC(=O)N1CCC[C@@H](n2nc(-c3ccc(-n4ccc(=O)cc4)c(F)c3)c3cncc(Cl)c32)C1"
  Operator symbol: "="
  Measured result: 3.45
- Entry smiles: "C=CC(=O)N1CCC[C@@H](n2nc(-c3ccc(C(=O)Nc4cc(C(F)(F)CC)ccn4)cc3)c3cncc(Cl)c32)C1"
  Operator symbol: ">"
  Measured result: 34.11

---

Method summary: Chemical stability in artificial gastric fluid (SGF without enzymes); further: time not given here
Condition label: 10 μM in SGF without enzymes, pH=1.4, 37° C.
Entries and their measured Amount of substance in the sample in % (chemical stability) follow.
Assay metric: Amount of substance in the sample in % (chemical stability) (%)

- Entry smiles: "C=CC(=O)N1CCC[C@@H](n2nc(-c3ccc(C(=O)Nc4ncccc4F)cc3)c3cncc(F)c32)C1"
  Measured result: 100
- Entry smiles: "C=CC(=O)N1CCC[C@@H](n2nc(-c3ccc(Oc4ccncc4C#N)cc3)c3c(N)ncc(Cl)c32)C1"
  Measured result: 95.9
- Entry smiles: "C=CC(=O)N1CC[C@@H](Cn2nc(-c3ccc(C(=O)Nc4ccccn4)cc3)c3cncc(Cl)c32)C1"
  Measured result: 100
- Entry smiles: "C=CC(=O)N1CCC[C@@H](n2nc(-c3cnc(-n4ccc(=O)c(C#N)c4)nc3)c3cncc(Cl)c32)C1"
  Measured result: 100

---

Reported CC50 (HepG2)/IC50 (Mino) values for a set of compounds
Tested on: HepG2 cells (hepatocellular carcinoma)
Method summary: General cytotoxicity on HepG2 cells (CC50; therapeutic index CC50 HepG2/IC50 Mino)
Assay type: cell-based
Condition label: Table 10; therapeutic index
Experimental: The CC50 values were determined in the test for General cytotoxicity on HepG2 cells (hepatocellular carcinoma, ATCC® HB-8065™). […] Viability of the cells was assessed using Alamar Blue dye (Invitrogen, #DAL 1100). CC50 was determined similarly (table 10). […]
Assay metric: CC50 (HepG2)/IC50 (Mino)

- Compound: "C=CC(=O)N1CCC[C@@H](n2nc(-c3ccc(-n4ccc(=O)cc4)cc3F)c3cncc(Cl)c32)C1 [BCD-BTK-204]"
  Assay metric: "CC50 (HepG2)/IC50 (Mino)"
  Operator symbol: "="
  Measured result: 2.95
- Compound: "C=CC(=O)N1CCC[C@@H](n2nc(-c3ccc(Oc4ccncc4C#N)cc3)c3cncc(F)c32)C1 [BCD-BTK-217]"
  Assay metric: "CC50 (HepG2)/IC50 (Mino)"
  Operator symbol: "="
  Measured result: 2.31
- Compound: "C=CC(=O)N1CCC[C@@H](n2nc(-c3ccc(C(=O)Nc4cc(C(C)(F)F)ccn4)cc3)c3cncc(C#N)c32)C1 [BCD-BTK-224]"
  Assay metric: "CC50 (HepG2)/IC50 (Mino)"
  Operator symbol: "="
  Measured result: 6.63
- Compound: "C=CC(=O)N1CCC[C@@H](n2nc(-c3ccc(-n4ccc(=O)cc4)cc3)c3c(Cl)c(O)cnc32)C1 [BCD-BTK-13]"
  Assay metric: "CC50 (HepG2)/IC50 (Mino)"
  Operator symbol: ">"
  Measured result: 2.70
- Compound: "C=CC(=O)N1CCC[C@@H](n2nc(-c3ccc(Oc4ccncc4C#N)cc3)c3cncc(C#N)c32)C1 [BCD-BTK-213]"
  Assay metric: "CC50 (HepG2)/IC50 (Mino)"
  Operator symbol: ">"
  Measured result: 31.3
- Compound: "C=CC(=O)N1CCC[C@@H](n2nc(-c3ccc(Oc4ccncc4)cc3)c3cc(O)cc(C#N)c32)C1 [BCD-BTK-137]"
  Assay metric: "CC50 (HepG2)/IC50 (Mino)"
  Operator symbol: "="
  Measured result: 5.70
- Compound: "C=CC(=O)N1CCC[C@@H](n2nc(-c3ccc(C(=O)Nc4cc(C(F)(F)CCC)ccn4)cc3)c3cncc(F)c32)C1 [BCD-BTK-247]"
  Assay metric: "CC50 (HepG2)/IC50 (Mino)"
  Operator symbol: ">"
  Measured result: 17.21
